System: CASKI
experimentalDetails: Primary qHTS to identify gynecologic anti-cancer compounds using libraries of approved drugs and bioactive compounds (AID 1345084); further: nearly all actives have a fitted effect of over 55% in size
runConditions: Gynecologic cancer cell panel viability, ATPlite luminescence, 48 h; series mostly up to 57.5 µM
Results filed as inconclusive are left out. Activity calls are given as the source filed them. The call rests on the fitted dose curve; in most records, active means well fitted cell-killing curve with a large enough effect; inconclusive means small, poorly fitted or top-dose-only effect, or effect the other way; inactive means flat fitted curve, though single readings scatter.

>  <compound>
O=C(N/N=C/c1ccc([N+](=O)[O-])o1)c1cc([N+](=O)[O-])cc([N+](=O)[O-])c1O

>  <assayedSystem>
CASKI

>  <outcome>
inactive

$$$$
>  <compound>
COc1cc(OC)c(OC)cc1C=O

>  <assayedSystem>
CASKI

>  <outcome>
inactive

$$$$
>  <compound>
O=[N+]([O-])O[C@H]1CO[C@H]2[C@@H]1OC[C@H]2O[N+](=O)[O-]

>  <assayedSystem>
CASKI

>  <outcome>
inactive

$$$$
>  <compound>
CCc1cc2c(s1)-n1c(C)nnc1CN=C2c1ccccc1Cl

>  <assayedSystem>
CASKI

>  <outcome>
inactive

$$$$
>  <compound>
CCCCCCC(=O)CCCCCC/C=C/C[C@@H](O)[C@H](O)[C@@](N)(CO)C(=O)O

>  <assayedSystem>
CASKI

>  <outcome>
inactive

$$$$
>  <compound>
CN1C(=O)NC(=O)C(C)(C2=CCCCC2)C1=O (stereo not given)

>  <assayedSystem>
CASKI

>  <outcome>
inactive

$$$$
>  <compound>
CCCCC/C=C\C/C=C\C/C=C\C/C=C\CCCC(=O)NCC(=O)O

>  <assayedSystem>
CASKI

>  <outcome>
inactive

$$$$
>  <compound>
CCCN(CCC)C(=O)Cc1c(-c2ccc(Cl)cc2)nc2ccc(Cl)cn12

>  <assayedSystem>
CASKI

>  <outcome>
inactive

$$$$
>  <compound>
Nc1nc(N)nc(NC2CC2)n1

>  <assayedSystem>
CASKI

>  <outcome>
inactive

$$$$
>  <compound>
CC(=O)C1CCOC1=O (stereo not given)

>  <assayedSystem>
CASKI

>  <outcome>
inactive

$$$$
>  <compound>
C[C@]12CC[C@H]3[C@@H](CCC4=CC(=O)CC[C@@H]43)[C@@H]1CC[C@@H]2OC(=O)CCC1CCCCC1

>  <assayedSystem>
CASKI

>  <outcome>
inactive

$$$$
>  <compound>
C[C@H](N)C(=O)c1ccccc1

>  <assayedSystem>
CASKI

>  <outcome>
inactive

$$$$
>  <compound>
Nc1ccccc1C(=O)O

>  <assayedSystem>
CASKI

>  <outcome>
inactive

$$$$
>  <compound>
CC[N+]1(CC)CCC(OC(=O)C(O)(c2ccccc2)c2ccccc2)C1 (stereo not given)

>  <assayedSystem>
CASKI

>  <outcome>
inactive

$$$$
>  <compound>
Nc1ccccc1

>  <assayedSystem>
CASKI

>  <outcome>
inactive

$$$$
>  <compound>
CC(=O)OCC1=C(C(=O)O)N2C(=O)[C@@H](N)[C@H]2SC1

>  <assayedSystem>
CASKI

>  <outcome>
inactive

$$$$
>  <compound>
Clc1cccc(SC2CCNCC2)n1

>  <assayedSystem>
CASKI

>  <outcome>
inactive

$$$$
>  <compound>
CC(C)(C)c1ccc(O)cc1

>  <assayedSystem>
CASKI

>  <outcome>
inactive

$$$$
>  <compound>
CN1CCC(O)(c2ccc(F)cc2)C(C(=O)c2ccc(F)cc2)C1 (stereo not given)

>  <assayedSystem>
CASKI

>  <outcome>
inactive

$$$$
>  <compound>
COP(=S)(OC)Oc1ccc(SC)c(C)c1

>  <assayedSystem>
CASKI

>  <outcome>
inactive

$$$$
>  <compound>
NC(=O)CS(=O)C(c1ccccc1)c1ccccc1 (stereo not given)

>  <assayedSystem>
CASKI

>  <outcome>
inactive

$$$$
>  <compound>
COc1cccc(C(=O)CCN[C@@H](C)[C@H](O)c2ccccc2)c1

>  <assayedSystem>
CASKI

>  <outcome>
inactive

$$$$
>  <compound>
[N-]=[N+]=CC(=O)OC[C@H](N)C(=O)O

>  <assayedSystem>
CASKI

>  <outcome>
inactive

$$$$
>  <compound>
c1ccc(CN2CCNCC2)cc1

>  <assayedSystem>
CASKI

>  <outcome>
inactive

$$$$
>  <compound>
CCCOC(=O)c1cncn1C(C)c1ccccc1 (stereo not given)

>  <assayedSystem>
CASKI

>  <outcome>
inactive

$$$$
